B1: Azoarcus group I ribozyme (parent)
chain: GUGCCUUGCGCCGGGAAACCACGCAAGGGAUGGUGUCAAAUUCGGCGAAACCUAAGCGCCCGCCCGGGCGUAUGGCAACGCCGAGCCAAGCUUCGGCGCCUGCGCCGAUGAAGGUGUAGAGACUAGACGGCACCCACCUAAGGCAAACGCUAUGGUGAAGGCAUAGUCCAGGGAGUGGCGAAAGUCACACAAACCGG

variants of: B1; assay: reverse-splicing fitness (ratio to wild type); higher = more active; in vitro selection; Mg2+ level not given
Label Satisfied when reverse-splicing fitness is at or above 0.006; otherwise label Not satisfied.

[[record]]
variant_label = "A120C A145U"
classification = "Satisfied"

[[record]]
variant_label = "C82A A111U A145C C150G C169A"
classification = "Satisfied"

[[record]]
variant_label = "A111U A120G A145G C150G C169G"
classification = "Satisfied"

[[record]]
variant_label = "C82U A111U A145U C150G C169A"
classification = "Satisfied"

[[record]]
variant_label = "C82U A111G A120G A145U C169G U176G"
classification = "Not satisfied"

[[record]]
variant_label = "C82G A120G A145C C150G C169U U176G"
classification = "Not satisfied"

[[record]]
variant_label = "C82U A111G A120C A145G C150A C169G"
classification = "Satisfied"

[[record]]
variant_label = "C82U A111C A120U A145C C150G U176A"
classification = "Not satisfied"

[[record]]
variant_label = "C82U A111G C150U C169A U176G"
classification = "Not satisfied"

